- test method notes: NCI Yeast Anticancer Drug Screen. Data for the bub3 strain (AID 167)
- condition info: S. cerevisiae bub3 mutant strain, at 50.0 µM, stronger effect = higher value
Compounds without any hit were thinned out: in the full panel of roughly 79,000, 15% have a hit. Calls of active or inactive are those of the source. Rule as the data show it: active = growth inhibition above about 70%; inactive = the rest.
Measured growth inhibition, listed per entry.

Worked examples, 5 compounds total:
compound	growth inhibition
CN=c1ssc(/N=C(\SC)N(C)C)[n+]1C	-19.4% (inactive)
CCOP(=O)(OCC)/C(C#N)=C/c1ccco1	-16.5% (inactive)
CCC(/C=N/N=C(N)N)=N\N=C(N)N	19.9% (inactive)
Cc1ccc(C)c(OP(=O)(Oc2cc(C)ccc2C)Oc2cc(C)ccc2C)c1	-18% (inactive)
O=C([CH-]C(=O)c1ccccc1)c1ccccc1.[CH2-]C.[CH2-]C.[Tl+3]	60.1% (inactive)

// O=[N+]([O-])c1ccc(SC2CCCCCCC2Br)c([N+](=O)[O-])c1 (stereo not drawn) : growth inhibition value = 8.95% (inactive)

// CC1CCC2C(C)C3C(CC4C5CCC6CC(O)CCC6(C)C5CCC43C)N2C1 (stereo not drawn) : growth inhibition value = -18.4% (inactive)

// CSP(=S)(SC)SC(C)C : growth inhibition value = 6.5% (inactive)
